System: Staphylococcus aureus
Assay: Antibacterial activity against Staphylococcus aureus 2A1-8 with rplC G152D, D159Y and unmapped mutation
Assay type: functional
metric: MIC (µg/mL)
Please give a number only; it is taken to be in µg/mL.

Some compounds with recorded MIC:
INSERT INTO results (substance_smiles, target_or_test_system, experimental_result) VALUES
  ('C=C[C@]1(C)C[C@@H](OC(=O)CS[C@@H]2C[C@H]3CC[C@@H](C2)N3C)[C@]2(C)[C@H](C)CC[C@]3(CCC(=O)[C@H]32)[C@@H](C)[C@@H]1O', 'Staphylococcus aureus', 2),
  ('C[C@H]1COc2c(N3CCN(C)CC3)c(F)cc3c(=O)c(C(=O)O)cn1c23.C[C@H]1COc2c(N3CCN(C)CC3)c(F)cc3c(=O)c(C(=O)O)cn1c23.O', 'Staphylococcus aureus', 0.25),
  ('O=C(N[C@H](CO)[C@H](O)c1ccc([N+](=O)[O-])cc1)C(Cl)Cl', 'Staphylococcus aureus', 4);

We next turn to a different compound, shown below.
[Q] Enter measured MIC, system Staphylococcus aureus, for the compound shown: C=C[C@]1(C)C[C@@H](OC(=O)CSCCN(CC)CC)[C@]2(C)[C@H](C)CC[C@]3(CCC(=O)[C@H]32)[C@@H](C)[C@@H]1O
[A] 32

---

Tested on: Staphylococcus aureus
Test: Antibacterial activity against Staphylococcus aureus RN4220 with rplC G152D, D159Y, G155R and H134N mutation
Type: functional
Threshold check on MIC: strictly below 0.5 µg/mL is Yes; on or above 0.5 µg/mL is No.

INSERT INTO measurements (compound, group_label) VALUES
  ('C/C(=C\C(=O)OCCCCCCCCC(=O)O)C[C@@H]1OC[C@H](C[C@@H]2O[C@H]2[C@@H](C)[C@H](C)O)[C@@H](O)[C@H]1O [MUPIROCIN]', 'Yes');

[Q] Dear reviewer, please state whether O=C(N[C@H](CO)[C@H](O)c1ccc([N+](=O)[O-])cc1)C(Cl)Cl [CHLORAMPHENICOL] has MIC strictly beneath 0.5 µg/mL.
[A] No

[Q] Dear reviewer, please state whether C=C[C@]1(C)C[C@@H](OC(=O)CSCCN(CC)CC)[C@]2(C)[C@H](C)CC[C@]3(CCC(=O)[C@H]32)[C@@H](C)[C@@H]1O [TIAMULIN] has MIC strictly beneath 0.5 µg/mL.
[A] No

[Q] Dear reviewer, please state whether CN(C)[C@@H]1C(O)=C(C(N)=O)C(=O)[C@@]2(O)C(O)=C3C(=O)c4c(O)cccc4[C@@](C)(O)[C@H]3C[C@@H]12 [TETRACYCLINE] has MIC strictly beneath 0.5 µg/mL.
[A] Yes

[Q] Dear reviewer, please state whether C=C[C@]1(C)C[C@@H](OC(=O)CS[C@@H]2C[C@H]3CC[C@@H](C2)N3C)[C@]2(C)[C@H](C)CC[C@]3(CCC(=O)[C@H]32)[C@@H](C)[C@@H]1O [RETAPAMULIN] has MIC strictly beneath 0.5 µg/mL.
[A] Yes

---

Tested on: Staphylococcus aureus
Experiment: Antibacterial activity against wild type Staphylococcus aureus RN4220
Type: functional
metric: MIC
Write the numeric value and append its unit.

Some compounds with recorded MIC:
INSERT INTO measurements (compound, metric, experimental_result) VALUES
  ('C/C(=C\C(=O)OCCCCCCCCC(=O)O)C[C@@H]1OC[C@H](C[C@@H]2O[C@H]2[C@@H](C)[C@H](C)O)[C@@H](O)[C@H]1O [MUPIROCIN]', 'MIC', '0.06 µg/mL'),
  ('CN(C)[C@@H]1C(O)=C(C(N)=O)C(=O)[C@@]2(O)C(O)=C3C(=O)c4c(O)cccc4[C@@](C)(O)[C@H]3C[C@@H]12 [TETRACYCLINE]', 'MIC', '0.25 µg/mL');

We next turn to a different compound, shown below.
[Q] Enter measured MIC, system Staphylococcus aureus, for the compound shown: C=C[C@]1(C)C[C@@H](OC(=O)CSCCN(CC)CC)[C@]2(C)[C@H](C)CC[C@]3(CCC(=O)[C@H]32)[C@@H](C)[C@@H]1O [TIAMULIN]
[A] 0.25 µg/mL

Origin of the recorded values: ChEMBL document CHEMBL1144468
